Items are presented alongside their recorded ALT.
tested on: diabetes mellitus+NASH model mice; assay: Diabetes mellitus + non-alcoholic steatohepatitis (NASH) model; assay type: in vivo, mouse; conditions: 50 mg/kg intragastric once a day for 28 days
Field: value (include unit after the number)

Reference set (3 entries):
>>> result("Cc1cc(OCCCC(C)(C)C(=O)O)c(C)cc1Br")
"115.57 ± 39.12 U/L"
>>> result("Cc1ccc(C)c(OCCCC(C)(C)C(=O)O)c1 [gemfibrozil, Gemfibrozil, reference compound]")
"134.14 ± 38.71 U/L"
>>> result("Cc1cc(OCCCC(C)(C)C(=O)O)c(C)cc1Cl")
"114.86 ± 51.2 U/L"

We now examine a further compound.
Which ALT value belongs to Cc1cc(OCCCC(C)(C)C(=O)O)c(C)cc1F ?
125.14 ± 51.99 U/L

====

Items are presented alongside their recorded CK.
test system: diabetes mellitus+NASH model mice; assay: Diabetes mellitus + non-alcoholic steatohepatitis (NASH) model; format: in vivo, mouse; settings: 50 mg/kg intragastric once a day for 28 days
A number alone suffices; assume U/L.

>>> measured_number("Cc1cc(OCCCC(C)(C)C(=O)O)c(C)cc1F")
1674.71
>>> measured_number("Cc1ccc(C)c(OCCCC(C)(C)C(=O)O)c1 [gemfibrozil, Gemfibrozil, reference compound]")
1222.14
>>> measured_number("Cc1cc(OCCCC(C)(C)C(=O)O)c(C)cc1Cl")
1297.71

We now examine a further compound.
So what CK did Cc1cc(OCCCC(C)(C)C(=O)O)c(C)cc1Br get with diabetes mellitus+NASH model mice?
1406.33

====

system: diabetes mellitus+NASH model mice; experiment: Diabetes mellitus + non-alcoholic steatohepatitis (NASH) model; format: in vivo, mouse; settings: 50 mg/kg intragastric once a day for 28 days
Outcome measure: CHOL (total cholesterol) (mmol/L)
A number alone suffices; assume mmol/L.

So what CHOL (total cholesterol) did Cc1cc(OCCCC(C)(C)C(=O)O)c(C)cc1Br get with diabetes mellitus+NASH model mice?
3.78

Same question for Cc1cc(OCCCC(C)(C)C(=O)O)c(C)cc1F please.
4.42

Same question for Cc1cc(OCCCC(C)(C)C(=O)O)c(C)cc1Cl please.
4.85

Same question for Cc1ccc(C)c(OCCCC(C)(C)C(=O)O)c1 [gemfibrozil, Gemfibrozil, reference compound] please.
5.37

====

Items are presented alongside their recorded BUN.
system: diabetes mellitus+NASH model mice; experiment: Diabetes mellitus + non-alcoholic steatohepatitis (NASH) model; assay type: in vivo, mouse; conditions: 50 mg/kg intragastric once a day for 28 days
A number alone suffices; assume mmol/L.

>>> measured_number("Cc1cc(OCCCC(C)(C)C(=O)O)c(C)cc1Br [BJMU-2]")
11.95
>>> measured_number("Cc1cc(OCCCC(C)(C)C(=O)O)c(C)cc1Cl [BJMU-1]")
9.89
>>> measured_number("Cc1ccc(C)c(OCCCC(C)(C)C(=O)O)c1 [gemfibrozil, Gemfibrozil, reference compound]")
11.96

We now examine a further compound.
Which BUN value belongs to Cc1cc(OCCCC(C)(C)C(=O)O)c(C)cc1F [BJMU-3] ?
9.29

====

test system: diabetes mellitus+NASH model mice; test: Diabetes mellitus + non-alcoholic steatohepatitis (NASH) model; format: in vivo, mouse; details: 50 mg/kg intragastric once a day for 28 days
Outcome measure: TGL (triglycerides) (mmol/L)
A number alone suffices; assume mmol/L.

Reference set (2 entries):
>>> measured_number("Cc1cc(OCCCC(C)(C)C(=O)O)c(C)cc1F")
1.86
>>> measured_number("Cc1ccc(C)c(OCCCC(C)(C)C(=O)O)c1 [gemfibrozil, Gemfibrozil, reference compound]")
1.86

So what TGL (triglycerides) did Cc1cc(OCCCC(C)(C)C(=O)O)c(C)cc1Cl get with diabetes mellitus+NASH model mice?
1.77

Same question for Cc1cc(OCCCC(C)(C)C(=O)O)c(C)cc1Br please.
1.73
